tested.system: SUMO E1 (Homo sapiens, UniProt Q9UBE0+Q9UBT2)
Sequence (Q9UBE0 whole entry): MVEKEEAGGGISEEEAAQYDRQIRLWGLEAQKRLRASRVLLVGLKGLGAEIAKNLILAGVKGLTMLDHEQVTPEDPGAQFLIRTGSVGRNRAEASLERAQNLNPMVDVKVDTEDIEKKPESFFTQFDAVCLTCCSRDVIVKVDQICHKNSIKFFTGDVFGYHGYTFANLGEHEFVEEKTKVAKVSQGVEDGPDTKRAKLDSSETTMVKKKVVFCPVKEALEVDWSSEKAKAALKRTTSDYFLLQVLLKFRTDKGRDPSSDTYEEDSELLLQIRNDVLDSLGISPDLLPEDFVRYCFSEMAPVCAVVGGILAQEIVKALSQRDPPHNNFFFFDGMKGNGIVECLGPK
Sequence (Q9UBT2 whole entry): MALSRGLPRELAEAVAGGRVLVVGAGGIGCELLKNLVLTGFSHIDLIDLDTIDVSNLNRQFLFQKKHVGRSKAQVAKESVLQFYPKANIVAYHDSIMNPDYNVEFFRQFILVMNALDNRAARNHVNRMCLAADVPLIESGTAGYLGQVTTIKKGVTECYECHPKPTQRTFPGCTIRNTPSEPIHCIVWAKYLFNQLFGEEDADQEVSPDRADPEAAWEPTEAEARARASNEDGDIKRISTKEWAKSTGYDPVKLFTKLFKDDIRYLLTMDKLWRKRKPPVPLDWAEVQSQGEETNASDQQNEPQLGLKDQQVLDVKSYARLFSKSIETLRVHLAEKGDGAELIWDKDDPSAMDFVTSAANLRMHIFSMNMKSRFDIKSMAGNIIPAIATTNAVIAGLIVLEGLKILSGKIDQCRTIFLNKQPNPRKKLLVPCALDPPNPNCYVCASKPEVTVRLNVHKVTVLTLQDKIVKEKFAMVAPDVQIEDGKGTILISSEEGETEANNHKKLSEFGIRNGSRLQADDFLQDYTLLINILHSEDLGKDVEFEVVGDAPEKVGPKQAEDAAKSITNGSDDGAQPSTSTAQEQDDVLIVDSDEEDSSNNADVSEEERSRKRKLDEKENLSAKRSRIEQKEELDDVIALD
protocol.details: Gel-based assay of SUMO-RanGap1, E1-SUMO and E2~SUMO thioester conjugate formation
Format: biochemical
settings: strength in words
Protocol: FIG. 4 illustrates a representative assay to determine the efficacy of E1 inhibitors generated from a singleton probe. Stereo-specific effects of this series in inhibiting the SUMO E1. […] Negative and positive controls were reactions in the absence and presence of ATP. […] The stereo chemistry was determined by X-ray crystallography. Each singleton analog was analyzed to determine its inhibitory effect on SUMOylation and ubiquitination, tested both in the HTS format and gel-based format (FIG. 4). […]
measured.attribute: SUMO-RanGap1 and SUMO-E2 Conjugation Inhibition

compound	tested.system	observed.measurement
COC(=O)C1=C(C(=O)OC)C2([C@H](Cc3ccccc3)Nc3ccc(Cl)cc3)C=CC1O2 (mixture of isomers) [MLS-0437121]	SUMO E1 (Homo sapiens, UniProt Q9UBE0+Q9UBT2)	Very Weak
C=CC[C@@H](Nc1ccc(Cl)cc1)C12C=CC(O1)C(C(=O)OC)=C2C(=O)OC (stereo partly shown) [MLS-0437126]	SUMO E1 (Homo sapiens, UniProt Q9UBE0+Q9UBT2)	Weak
C=CC[C@H](Nc1ccc(Cl)cc1)C12C=CC(O1)C(C(=O)OC)=C2C(=O)OC (stereo partly shown) [MLS-0437127]	SUMO E1 (Homo sapiens, UniProt Q9UBE0+Q9UBT2)	Weak
COC(=O)C1=C(C(=O)OC)C2([C@@H](Cc3ccccc3)Nc3ccc(OC)cc3)C=CC1O2 (stereo partly shown) [MLS-0437118]	SUMO E1 (Homo sapiens, UniProt Q9UBE0+Q9UBT2)	Very Weak

---

tested.system: SUMO E1 or SUMO E2 (Homo sapiens, UniProt Q9UBE0+Q9UBT2)
protocol.details: SUMOylation HTS assay, SUMO (AlphaScreen-BSA), SUMOylation of RanGAP1
Type: biochemical
Procedure: A lead compound was selected, and is identified herein as MLS0437113 (FIG. 3). Each singleton analog was analyzed to determine its inhibitory effect on SUMOylation and ubiquitination, tested both in the HTS format and gel-based format (FIG. 4).
I would appreciate it if you labelled entries Fulfilled when SUMO (AlphaScreen-BSA) IC50 is 7 µM or higher, otherwise Not fulfilled.

molecule	label.class
C=CC[C@@H](Nc1ccc(Cl)cc1)C12C=CC(O1)C(C(=O)OC)=C2C(=O)OC (stereo partly shown)	Fulfilled
COC(=O)C1=C(C(=O)OC)C2([C@H](Cc3ccccc3)Nc3ccccc3)C=CC1O2 (mixture of isomers)	Fulfilled
C=CC[C@@H](Nc1ccccc1)C12C=CC(O1)C(C(=O)OC)=C2C(=O)OC (stereo partly shown)	Not fulfilled
COC(=O)C1=C(C(=O)OC)C2([C@@H](Cc3ccccc3)Nc3ccc(Cl)cc3)C=CC1O2 (mixture of isomers)	Not fulfilled
COC(=O)C1=C(C(=O)OC)[C@@]2([C@@H](Cc3ccccc3)Nc3ccccc3)C=C[C@@H]1O2 (racemic)	Not fulfilled
COC(=O)C1=C(C(=O)OC)C2([C@H](Cc3ccccc3)Nc3ccc(Cl)cc3)C=CC1O2 (mixture of isomers)	Fulfilled

---

protocol.details: Stability in Tris buffer, parent remaining by HPLC-MS
Assay type: physicochemical
settings: 60 min, 50 mM Tris, without BSA
Short version: % Remaining after 60 min in 50 mM Tris (−BSA) at least 50% is label 1, less is label 0.

molecule	label.class
COC(=O)C1=C(C(=O)OC)C2([C@@H](Nc3ccccc3)c3ccc(C)cc3)C=C[C@@H]1O2 (stereo in doubt)	label 1
COC(=O)C1=C(C(=O)OC)C2(C(Nc3ccccc3)c3ccc(OC(F)(F)F)cc3)C=C[C@@H]1O2 (stereo partly drawn)	label 1
COC(=O)C1=C(C(=O)OC)C2([C@@H](Cc3ccccc3)Nc3ccc(Cl)cc3)C=CC1O2 (mixture of isomers)	label 0
COC(=O)C1=C(C(=O)OC)C2(C(Nc3ccccc3)c3ccc(F)cc3)C=C[C@@H]1O2 (stereo partly drawn)	label 1
CCC[C@H](Nc1ccccc1)C12C=C[C@H](O1)C(C(=O)OC)=C2C(=O)OC (stereo in doubt)	label 0
COC(=O)C1=C(C(=O)OC)[C@@]2([C@@H](Cc3ccccc3)Nc3ccccc3)C=C[C@@H]1O2 (racemic)	label 0
